Cited source: ChEMBL document CHEMBL4680082

biological target: 5-hydroxytryptamine receptor 2A (Homo sapiens, UniProt P28223)
Sequence (P28223 whole entry): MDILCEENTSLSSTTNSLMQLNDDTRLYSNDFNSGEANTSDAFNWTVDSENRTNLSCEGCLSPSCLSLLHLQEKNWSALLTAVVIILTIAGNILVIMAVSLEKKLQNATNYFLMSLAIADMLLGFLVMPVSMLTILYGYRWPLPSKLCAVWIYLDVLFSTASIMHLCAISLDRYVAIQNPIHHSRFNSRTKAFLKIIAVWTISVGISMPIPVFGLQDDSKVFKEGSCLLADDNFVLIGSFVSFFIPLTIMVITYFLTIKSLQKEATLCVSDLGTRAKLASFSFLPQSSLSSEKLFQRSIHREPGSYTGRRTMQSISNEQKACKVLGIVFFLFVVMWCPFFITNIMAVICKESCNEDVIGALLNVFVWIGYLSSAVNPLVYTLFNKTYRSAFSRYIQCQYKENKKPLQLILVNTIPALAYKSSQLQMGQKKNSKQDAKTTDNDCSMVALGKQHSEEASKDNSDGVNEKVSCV
pEC50: −log10 of the molar value.
Classify as follows. Reported pEC50 greater than or equal to 6: 1.0. Reported pEC50 below: 0.0.

Solved cases below.
CCOc1ccc2occc2c1[C@@H]1C[C@H]1CN
1.0
C=C(C)COc1ccc2occc2c1[C@H]1C[C@@H]1CN
1.0
CCc1cc2c([C@H]3C[C@@H]3CN)c(OCCF)ccc2o1
0.0

Shift focus to the following entry.
## Input Could you please find out whether NC[C@@H]1C[C@H]1c1c(OCCF)ccc2occc12 has pEC50 that meets 6 or exceeds it?
## Output 1.0

----------
Entries and their measured Emax follow.
target: 5-hydroxytryptamine receptor 2C (Homo sapiens); experiment: Agonist activity at human 5-HT2C receptor expressed in human Flp-In-293 cells assessed as induction of calcium flux incubated for 1 hr by Fluo-4 direct dye based FLIPR assay relative to 5-HT; type: functional, cell-based; conditions: filed as agonist
Your answer should be a plain number; it is taken to be in %.

Previously resolved entries follow.
CCc1cc2c([C@H]3C[C@@H]3CN)c(OCC3CC3)ccc2o1
101
CCc1cc2c([C@H]3C[C@@H]3CN)c(OCCF)ccc2o1
106
COc1ccc2c(c1[C@@H]1C[C@H]1CN)CCO2
102
CCc1cc2c([C@H]3C[C@@H]3CN)c(OC)ccc2o1
101

## Input # returns recorded Emax (system: 5-hydroxytryptamine receptor 2C (Homo sapiens)) for NC[C@H]1C[C@@H]1c1c(OCC2CC2)ccc2c1CCO2
## Output 95

----------
Target: 5-hydroxytryptamine receptor 2C (Homo sapiens, UniProt P28335)
Sequence (P28335 whole entry): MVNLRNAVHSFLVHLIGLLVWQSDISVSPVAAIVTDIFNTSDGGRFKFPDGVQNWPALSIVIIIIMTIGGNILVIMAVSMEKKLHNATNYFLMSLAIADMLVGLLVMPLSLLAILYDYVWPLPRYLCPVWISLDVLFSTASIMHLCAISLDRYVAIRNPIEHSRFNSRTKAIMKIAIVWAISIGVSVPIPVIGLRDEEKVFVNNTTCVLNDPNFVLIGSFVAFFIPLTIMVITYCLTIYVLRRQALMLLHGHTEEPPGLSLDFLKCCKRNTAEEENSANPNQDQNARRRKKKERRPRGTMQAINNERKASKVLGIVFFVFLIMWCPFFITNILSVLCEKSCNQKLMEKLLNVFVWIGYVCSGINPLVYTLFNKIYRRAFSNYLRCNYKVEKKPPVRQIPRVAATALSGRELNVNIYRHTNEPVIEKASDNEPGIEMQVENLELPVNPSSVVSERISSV
Reported EC50 values follow for various compounds
Write the number in nM without appending the unit.

COc1ccc2c(c1[C@H]1C[C@@H]1CN)CCO2
8.9
CCCOc1ccc2c(c1[C@H]1C[C@@H]1CN)CCO2
20

## Input Record CCc1cc2c([C@@H]3C[C@H]3CN)c(OCCF)ccc2o1 : what is its EC50 with 5-hydroxytryptamine receptor 2C (Homo sapiens, UniProt P28335)?
## Output 81

## Input // repeat for C=CCOc1ccc2c(c1[C@@H]1C[C@H]1CN)CCO2 and report
## Output 94

----------
Here's a batch of compounds along with measured pEC50 for 5-hydroxytryptamine receptor 2A (Homo sapiens, UniProt P28223).
In textbook form, pEC50 equals minus log to base ten of the concentration in mol/L.

## Input Request the reported pEC50 associated with CCOc1ccc2c(c1[C@@H]1C[C@H]1CN)CCO2
## Output 6.01

## Input Could you do the same for CC(C)Oc1ccc2occc2c1[C@@H]1C[C@H]1CN , please?
## Output 6.03

## Input Input COc1ccc2occc2c1[C@@H]1C[C@H]1CN
## Output 6.96

## Input COc1ccc2c(c1[C@@H]1C[C@H]1CN)CCO2 ?
## Output 6.53

## Input Param item: CCOc1ccc2occc2c1[C@H]1C[C@@H]1CN
## Output 6.95

## Input Here is the next compound: NC[C@@H]1C[C@H]1c1c(OCCF)ccc2c1CCO2
## Output 5.71

## Input Field entry: CCCOc1ccc2c(c1[C@H]1C[C@@H]1CN)CCO2
## Output 6.13

## Input Please do the same for C=CCOc1ccc2c(c1[C@H]1C[C@@H]1CN)CCO2 as well.
## Output 6.21

----------
Item-by-item account of Emax
target: 5-hydroxytryptamine receptor 2C (Homo sapiens); assay: Agonist activity at human 5-HT2C receptor expressed in human Flp-In-293 cells assessed as induction of calcium flux incubated for 1 hr by Fluo-4 direct dye based FLIPR assay relative to 5-HT; format: functional, cell-based; conditions: filed as agonist
Hi! Could you send only the number? It should be in %, unit omitted.

CCOc1ccc2occc2c1[C@@H]1C[C@H]1CN
107

## Input Emax for C=CCOc1ccc2occc2c1[C@@H]1C[C@H]1CN ?
## Output 101

## Input What would you report for C=C(C)COc1ccc2occc2c1[C@@H]1C[C@H]1CN ?
## Output 70

## Input Request: CCc1cc2c([C@@H]3C[C@H]3CN)c(OCCF)ccc2o1
## Output 84

## Input Try this molecule next: COc1ccc2occc2c1[C@@H]1C[C@H]1CN
## Output 96

## Input What about CCc1cc2c([C@@H]3C[C@H]3CN)c(OC)ccc2o1 ?
## Output 88

## Input And for CCOc1ccc2oc(CC)cc2c1[C@@H]1C[C@H]1CN ?
## Output 76

## Input Request: NC[C@@H]1C[C@H]1c1c(OCC2CC2)ccc2occc12
## Output 87

## Input One more molecule: C=C(F)COc1ccc2occc2c1[C@H]1C[C@@H]1CN
## Output 103

## Input Would you kindly repeat that for CCc1cc2c([C@@H]3C[C@H]3CN)c(OCC3CC3)ccc2o1 ?
## Output 69

----------
biological target: 5-hydroxytryptamine receptor 2A (Homo sapiens, UniProt P28223)
READOUT_LABEL: pEC50
Recall that pEC50 is obtained by taking minus log10 of the concentration measured in molar.

CC(C)Oc1ccc2occc2c1[C@H]1C[C@@H]1CN
6.53

## Input Name the reported pEC50 value associated with the compound NC[C@H]1C[C@@H]1c1c(OCCF)ccc2occc12
## Output 7.66

## Input For COc1ccc2occc2c1[C@H]1C[C@@H]1CN then?
## Output 7.43

## Input For NC[C@H]1C[C@@H]1c1c(OCC2CC2)ccc2c1CCO2 then?
## Output 6.12
